Biological target: T1, cynomolgus CD3 (cynomolgus (Macaca fascicularis), UniProt Q95LI5 22-198; Q95LI8 22-171; Q95LI7 23-181)
T1 construct: whole, on cells; composition of the 'mix' not defined; also called cynoCD3
T1 sequence (Q95LI5 22-198, chain 1 of 3): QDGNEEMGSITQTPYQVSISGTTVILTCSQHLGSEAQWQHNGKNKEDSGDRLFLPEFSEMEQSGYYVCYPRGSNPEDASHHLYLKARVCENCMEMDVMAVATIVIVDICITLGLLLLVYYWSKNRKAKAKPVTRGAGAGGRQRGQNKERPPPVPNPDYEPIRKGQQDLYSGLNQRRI
T1 sequence (Q95LI8 22-171, chain 2 of 3): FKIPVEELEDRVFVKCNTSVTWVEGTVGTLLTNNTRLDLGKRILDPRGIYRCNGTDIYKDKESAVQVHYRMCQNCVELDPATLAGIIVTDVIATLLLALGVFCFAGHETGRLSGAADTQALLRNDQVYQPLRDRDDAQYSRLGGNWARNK
T1 sequence (Q95LI7 23-181, chain 3 of 3): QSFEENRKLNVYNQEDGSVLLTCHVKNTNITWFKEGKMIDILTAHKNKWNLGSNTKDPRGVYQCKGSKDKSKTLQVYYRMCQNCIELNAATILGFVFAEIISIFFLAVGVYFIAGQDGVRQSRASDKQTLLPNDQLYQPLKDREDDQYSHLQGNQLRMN
Assay: FACS on 293T-cynoCD3mix cells
pEC50: −log10 of the molar value.

binder: hu147E2-L1H4 (antibody, V domains shown, humanized 147E11E2; also called hu14E2-L1H4) VH: EVQLVQSGAEVKKPGSSVKVSCKASGYTFTSYWMHWVRQAPGQGLEWIGNINPSNGATNYNEKFKSRATLTVDKSTSTAYMELSSLRSEDTAVYYCARDRSSQYYFDYWGQGTTVTVSS VL: DIVMTQSPDSLAVSLGERATINCKSSQSLLNSRSRKNYLAWYQQKPGQPPKLLIYWASTRESGVPDRFSGSGSGTDFTLTISSLQAEDVAVYYCTQSYTLRTFGGGTKVEIK
pEC50: 8.88
--
binder: hu147E2-L3H3 (antibody, V domains shown, humanized 147E11E2; also called hu14E2-L3H3) VH: EVQLVQSGAEVKKPGSSVKVSCKASGYTFTSYWMHWVRQAPGQGLEWMGNINPSNGATNYNEKFKSRVTLTVDKSTSTAYMELSSLRSEDTAVYYCARDRSSQYYFDYWGQGTTVTVSS VL: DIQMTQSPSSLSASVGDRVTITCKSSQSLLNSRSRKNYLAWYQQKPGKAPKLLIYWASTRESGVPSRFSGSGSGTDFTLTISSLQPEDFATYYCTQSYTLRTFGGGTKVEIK
pEC50: 8.79
--
binder: hu147E2-L3H2 (antibody, V domains shown, humanized 147E11E2; also called hu14E2-L3H2) VH: EVQLVQSGAEVKKPGSSVKVSCKASGYTFTSYWMHWVRQAPGQGLEWMGNINPSNGATNYNEKFKSRVTITADKSTSTAYMELSSLRSEDTAVYYCARDRSSQYYFDYWGQGTTVTVSS VL: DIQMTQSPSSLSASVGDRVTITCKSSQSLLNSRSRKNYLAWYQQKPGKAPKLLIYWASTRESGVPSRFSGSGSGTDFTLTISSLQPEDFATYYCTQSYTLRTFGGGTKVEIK
pEC50: 8.75
